System: Male SD rats
experiment-summary: Atrial effective refractory period (AERP) prolonging effect, atrium electrostimulation model
Type: in vivo, rat
test-conditions: anesthetized male SD rats, drug 10 mg/kg/10 min, basic cycle 120 ms, three examples per group
Record true whenever ΔAERP prolongation is at 20 ms or higher; record false when lower.

# compound, assigned-class
records = [
    ("CCNC(=O)N[C@@H]1[C@@H](N)CC(C(=O)c2cccs2)=C[C@H]1OC(CC)CC", "true"),
    ("CCC(CC)O[C@@H]1C=C(C(=O)C(C)(C)C)C[C@H](N)[C@H]1NC(C)=O", "false"),
    ("CCOCC1=C[C@@H](OC(CC)CC)[C@H](NC(C)=O)[C@@H](N)C1", "true"),
    ("CCC(CC)O[C@@H]1C=C(C(=O)c2cccs2)C[C@H](N)[C@H]1NC(=O)CC(C)C", "true"),
    ("CCC(CC)O[C@@H]1C=C(C(=O)c2ccc(C)o2)C[C@H](N)[C@H]1NC(C)=O", "false"),
    ("CCC(CC)O[C@@H]1C=C(C(=O)c2ccccc2)C[C@H](NC(C)=O)[C@H]1N", "true"),
    ("CCOC(=O)C1=C[C@@H](OC(CC)CC)[C@H](NC(C)=O)[C@@H](N)C1 [Oseltamivir, reference compound]", "false"),
    ("CCC(CC)O[C@@H]1C=C(C(=O)c2ccccc2)C[C@H](N)[C@H]1NC(=O)C(C)(C)C", "true"),
]

---

As shown below, each of these molecules has a reported ΔAERP prolongation value.
System: Male SD rats
experiment-summary: Atrial effective refractory period (AERP) prolonging effect, atrium electrostimulation model
Format: in vivo, rat
test-conditions: anesthetized male SD rats, drug 10 mg/kg/10 min, basic cycle 120 ms, three examples per group

# molecule, ΔAERP prolongation [ms]
rows = [
    ("CCCCC(=O)C1=C[C@@H](OC(CC)CC)[C@H](NC(C)=O)[C@@H](N)C1.Cl [Example 12]", 23.0),
    ("CCC(CC)O[C@@H]1C=C(C(=O)c2cccs2)C[C@H](NC(C)=O)[C@H]1N [Example 21]", 29.5),
    ("CCC(CC)O[C@@H]1C=C(C(=O)c2ccc(F)cc2)C[C@H](N)[C@H]1NC(C)=O [Example 5]", 22.0),
    ("CCC(CC)O[C@@H]1C=C(C(=O)c2ccccc2)C[C@H](N)[C@H]1NC(=O)c1ccccc1 [Example 16]", 18.7),
]

---

As shown below, each of these compounds has a reported IC50 value.
experiment-summary: biochemical
Parameters: species or system Influenza A Virus H1N1
Where a name gives a salt, the structure may show the parent alone.
measure: IC50 (µM)

# compound, measure, reported-relation, endpoint-result
records = [
    ("CCC(CC)O[C@@H]1CC(C(O)c2ccccc2)C[C@H](N)[C@H]1NC(C)=O (stereo partly shown) [Example 24]", "IC50", ">", 300),
    ("CCN[C@@H]1[C@@H](N)CC(C(=O)c2cccs2)=C[C@H]1OC(CC)CC [Example 26]", "IC50", ">", 300),
    ("CCOCC1=C[C@@H](OC(CC)CC)[C@H](NC(C)=O)[C@@H](N)C1 [Example 23]", "IC50", "=", 80.1),
    ("CCC(CC)O[C@@H]1C=C(C(=O)c2ccc(OC)s2)C[C@H](N)[C@H]1NC(C)=O [Example 30, hydrochloride]", "IC50", "=", 10.6),
    ("CCC(CC)O[C@@H]1C=C(C(=O)c2cccs2)C[C@H](N)[C@H]1NC(C)=O [Example 1]", "IC50", "=", 71.7),
    ("CCC(CC)O[C@@H]1C=C(C(=O)c2ccccc2)C[C@H](N)[C@H]1NC(C)=O.Cl [Example 6, hydrochloride]", "IC50", "=", 86),
    ("CCCCCCC(=O)C1=C[C@@H](OC(CC)CC)[C@H](NC(C)=O)[C@@H](N)C1 [Example 28]", "IC50", "=", 24.6),
    ("CCC(CC)O[C@@H]1C=C(C(O)c2ccccc2)C[C@H](N)[C@H]1NC(C)=O (stereo partly shown) [Example 19]", "IC50", "=", 87.3),
    ("CCCCC(=O)C1=C[C@@H](OC(CC)CC)[C@H](NC(C)=O)[C@@H](N)C1.Cl [Example 12, hydrochloride]", "IC50", "=", 47.3),
    ("CCC(CC)O[C@@H]1C=C(C(=O)c2ccc(C)s2)C[C@H](N)[C@H]1NC(C)=O [Example 4]", "IC50", "=", 66.3),
]

---

Tested on: Male SD rats
experiment-summary: Atrial effective refractory period (AERP) prolonging effect, atrium electrostimulation model
Type: in vivo, rat
test-conditions: anesthetized male SD rats, drug 10 mg/kg/10 min, basic cycle 120 ms, three examples per group
As shown below, each of these compounds has a reported ΔAERP prolongation value.
measure: ΔAERP prolongation (ms)

# compound, system-tested, result-units, endpoint-result
records = [
    ("CCC(CC)O[C@@H]1C=C(C(=O)c2ccccc2)C[C@H](N)[C@H]1NC(C)=O.Cl [Example 6]", "Male SD rats", "ms", 35.7),
    ("CCC(CC)O[C@@H]1C=C(C(=O)Cc2ccccc2)C[C@H](N)[C@H]1NC(C)=O [Example 7]", "Male SD rats", "ms", 22.0),
    ("CCC(CC)O[C@@H]1CC(C(O)c2ccccc2)C[C@H](N)[C@H]1NC(C)=O (stereo partly shown) [Example 24]", "Male SD rats", "ms", 20.5),
    ("CCC(CC)O[C@@H]1C=C(C(=O)c2cccs2)C[C@H](N)[C@H]1NC(C)=O [Example 1]", "Male SD rats", "ms", 40.0),
]
